Measured koff, listed per entry for reference.
Target System: T1, human IL6R (human, UniProt P08887 20-358, limits assumed)
T1 construct: Antigen of the Biacore experiments
T1 sequence (looked up): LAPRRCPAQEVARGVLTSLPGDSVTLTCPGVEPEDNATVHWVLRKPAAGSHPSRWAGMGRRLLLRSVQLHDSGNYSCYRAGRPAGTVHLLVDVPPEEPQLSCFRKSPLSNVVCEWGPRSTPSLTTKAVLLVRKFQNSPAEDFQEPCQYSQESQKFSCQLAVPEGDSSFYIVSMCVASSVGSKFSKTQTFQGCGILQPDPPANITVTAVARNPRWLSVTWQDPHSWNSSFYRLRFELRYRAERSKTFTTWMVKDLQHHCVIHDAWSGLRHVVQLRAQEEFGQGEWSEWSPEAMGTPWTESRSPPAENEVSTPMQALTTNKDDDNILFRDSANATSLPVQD
Method Summary: SPR (Biacore), periplasmic extract
Record the value in s⁻¹, omitting the unit from your answer.

Example binders with recorded koff:
IL6R65PMP18G7 (VHH) VHH: EVQLVESGGGLVQPGGSLRLSCAASGTTFKVNVMAWYRQAPGKGRELVAGIITGGSTTYADSVKGRFTISRDNAKNTLYLQMNSLRPEDTAVYYCAFVTTNSDYDLGRDYWGQGTLVTVSS = 0.0003
IL6R65PMP11E4 (VHH) VHH: EVQLVESGGGLVQPGGSLRLTCAASGTIFKVNVMAWYRQAPGKGRELVAAIITGGSTSYADSVKGRFTISRDNAKNTLYLQMNSLRPEDTAVYYCAFVTTNSDYDLGRDYWGQGTLVTVSS = 0.00023
IL6R65PMP12E1 (VHH) VHH: EVQLVESGGGLVQPGGSLRLSCAANGSVYKVNAMAWYRQAPGKGRELVAGIVTGGTSNYADSVKGRFTISRDNAKNTLYLQMNSLRPEDTAVYYCAFVTTNSDYDLGRDYWGQGTLVTVSS = 0.00026

Please find the next binder below.
Lookup result for IL6R65PMP11H4 (VHH) VHH: EVQLVESGGGLVQPGGSLRLSCAASGSTFRLNVMAWYRQAPGKGRELVAAIITNGTTTYADSVKGRFTISRDNAKNTLYLQMNSLRPEDTAVYYCAFVTTNSDYDLGRDYWGQGTLVTVSS ; measured koff: 0.0008
